These data points were gathered from patent US9630969B2.

Target: human IDO (Homo sapiens)
Construct: made in house; host or cells: Escherichia coli
Sequence (P14902 whole entry): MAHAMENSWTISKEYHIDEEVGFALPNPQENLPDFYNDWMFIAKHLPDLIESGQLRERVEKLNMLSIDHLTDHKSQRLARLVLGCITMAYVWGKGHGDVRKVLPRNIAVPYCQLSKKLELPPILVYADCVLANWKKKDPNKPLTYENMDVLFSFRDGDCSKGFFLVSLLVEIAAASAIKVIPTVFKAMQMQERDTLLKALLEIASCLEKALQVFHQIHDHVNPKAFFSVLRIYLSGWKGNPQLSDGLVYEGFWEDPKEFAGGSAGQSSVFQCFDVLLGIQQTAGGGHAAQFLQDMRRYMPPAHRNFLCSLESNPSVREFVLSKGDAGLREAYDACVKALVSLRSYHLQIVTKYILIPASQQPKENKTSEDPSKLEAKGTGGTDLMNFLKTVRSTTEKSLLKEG
Assay: Determination of whether the inhibitor is reversible (v~[E] plot)
Format: biochemical
Conditions: constant inhibitor concentration, different IDO enzyme amounts, 300 mM L-tryptophan, 37° C. 30 minutes
Method: In case that the inhibitor concentration was constant, a series of enzymes of different concentrations are reacted with the inhibitor and the reaction rate was measured. The reaction rate to the enzyme concentration (v˜[E]) was plotted, thus it can be determined that whether it is a reversible inhibitor according to the curve characteristics. The mixture was incubated under 37° C. for 5 min, then different volumes of IDO enzymes were added. […]
Value Type: Reversible Inhibitor or Not

1) O=C1c2c(N3CCNCC3)cccc2-n2c1nc1ccccc1c2=O [Comparison 1, 7-piperazine tryptanthrin, reference compound] | Reversible
2) O=C1c2cc(F)ccc2-n2c1nc1ccc(N3CCNCC3)cc1c2=O | Reversible
3) O=C1c2cc(F)ccc2-n2c1nc1ccc(N3CCCCC3)cc1c2=O | Reversible
4) CN1CCN(c2ccc3nc4n(c(=O)c3c2)-c2ccc(F)cc2C4=O)CC1 | Reversible
5) CN1CCN(c2ccc3nc4n(c(=O)c3c2)-c2ccccc2C4=O)CC1 | Reversible
6) CN(C)c1ccc2nc3n(c(=O)c2c1)-c1ccc(F)cc1C3=O | Reversible
